- Assay System: purified HLA DRB4*0101 (human)
- Assay Procedure: competitive inhibition of 125I-labeled peptide binding to purified HLA
Reported Endpoint: IC50
Field note: include the unit after the figure.

If you can, please state the reported IC50 value of RREVHIYYLEKANKI (modifications not checked) [Flu.PA.127 peptide …] .
5 nM
